system: TO-3-N3-2 (biotin conjugate); experiment: pull-down binding Z-score (relative to library population); higher = stronger binding; details: RNA library: Library-2
condition met means recorded pull-down binding Z-score is -0.1 or above; condition not met means it is below -0.1.

Q. Check if pull-down binding Z-score >= -0.1 (inclusive). Item: UGGGCACACUUUCUUAUGAACAAUUUAAGAAAGGUGUUCA [SHAPE_invivo_SARS-CoV-2_Motif_116]
A. condition not met

* * *

The entries below are paired with their reported pull-down binding Z-score.
system: TO-N3 (biotin conjugate); test: pull-down binding Z-score (relative to library population); higher = stronger binding; details: RNA library: Library-2
Please reply with the value in numeric form only.

Polymer Sequence	pull-down binding Z-score
UGUUAAGGCAUGUUCAGGAACA [hsa-mir-1265]	0.28

# input for lookup
Q. # pull-down binding Z-score lookup, item UGUACAUCUUCUUUGCAUCAUUUUAUUAUGUAUGGAAAAGUUAUGUGCA [SHAPE_invitro_SARS-CoV-2_Motif_147]
A. -0.813

* * *

tested on: TO-N3-2 (biotin conjugate); assay: pull-down binding Z-score (relative to library population); higher = stronger binding; conditions: RNA library: Library-2
Please use TRUE whenever pull-down binding Z-score is not below -0.1, and FALSE whenever it is.

Polymer Sequence	Target System	Category Label
GGGGGCAGGCAGGGGAUUGGCUAAGAACCUGACUCUUGC [hsa-mir-7703]	TO-N3-2 (biotin conjugate)	TRUE
AGAAGGCCUAUGGUGAUUUGCAUUCUU [hsa-mir-6875]	TO-N3-2 (biotin conjugate)	FALSE
CCCACGGCCCUUGUCAGUGUG [hsa-mir-3190]	TO-N3-2 (biotin conjugate)	TRUE
GACCCUGUGGGUU [SHAPE_invitro_SARS-CoV-2_Motif_242]	TO-N3-2 (biotin conjugate)	FALSE

Continue with the sequence presented below.
Q. Dear colleague, could you confirm whether AGUUUGUGAUAAUGUUUGUCUAUAUAGUUAUGAAUG [hsa-mir-4307] has pull-down binding Z-score at or above -0.1?
A. FALSE

* * *

system: TO-N3 (biotin conjugate); test: pull-down binding Z-score (relative to library population); higher = stronger binding; conditions: RNA library: Library-2
pull-down binding Z-score overview
Would you mind answering with just the numeric figure?

Polymer Sequence	Target System	pull-down binding Z-score
UGGGGACCAGGAACUAAUCAGACAAGGAACUGAUUACAAACAUUGGCCGCAAAUUGCACAAUUUGCCCCCA	TO-N3 (biotin conjugate)	0.312

Q. Can you share its pull-down binding Z-score? I mean this sequence: UUUGCUAUUACUUUUAAUGGUAAA [hsa-mir-548aj-2]
A. -0.932

Q. Bench note: what pull-down binding Z-score did CCCGGAUACCUCAGAAAUUCGG [hsa-mir-760] show?
A. -0.0213

Q. Any idea what its pull-down binding Z-score is? The sequence is UCCCUUCCUGGACACACAGGAGGAGA [hsa-mir-5680]
A. -0.874

Q. Return reported pull-down binding Z-score; argument: CAGUGCUUUUAGAAAAUUUGUGUG [hsa-mir-581]
A. -0.558

Q. For GGGCCCCAAGACUCGGGGUUU [hsa-mir-4651] , what is its reported pull-down binding Z-score?
A. 0.65

* * *

system: TO-3-N3 (biotin conjugate); experiment: pull-down binding Z-score (relative to library population); higher = stronger binding; settings: RNA library: Library-2
Measurement Name: pull-down binding Z-score
// return a plain number; no unit text

Polymer Sequence	Target System	pull-down binding Z-score
GUUUUCUACAAAGAAAAC	TO-3-N3 (biotin conjugate)	-0.676
CAUGUCAUGUCUAAACAUACUGACUUUUCAAGUG [SHAPE_invitro_SARS-CoV-2_Motif_169]	TO-3-N3 (biotin conjugate)	-0.283
CCUUCUGCUUACAGGUAUUGGAAGG [hsa-mir-3158-1]	TO-3-N3 (biotin conjugate)	-0.281
CUUUCUGUUGUCUGAAAGAAAAGAAAA [hsa-mir-522]	TO-3-N3 (biotin conjugate)	-0.109
GCAGCCUUCUGCCUUUGGCUUUCUGAAGCGAGCUGA [hsa-mir-7158]	TO-3-N3 (biotin conjugate)	0.327
CUCAAGUCCUCUAUUUCUUUGAA [hsa-mir-7978]	TO-3-N3 (biotin conjugate)	-0.712

Q. GET /values?readout=pull-down binding Z-score&system=TO-3-N3 (biotin conjugate)&item= `UGUGUCAAUAUUUAAACACA`
A. 0.372

Q. State its pull-down binding Z-score on TO-3-N3 (biotin conjugate): GCUGUUGGUACCAAUUUACCUUUACAGC [SHAPE_invitro_SARS-CoV-2_Motif_335]
A. 0.416

Q. Return pull-down binding Z-score measured with TO-3-N3 (biotin conjugate) given this sequence: GAUUAUGUGUACCUUCCUUACCCAGAUCCAUCAAGAAUCCUAGGGGCCGGCUGUUUUGUAGAUGAUAUCGUAAAAACAGAUGGUACACUUAUGAUU [SHAPE_invitro_SARS-CoV-2_Multi_44_ComplexLevel_1]
A. 0.359

Q. pull-down binding Z-score of AAUUUUGAUGAGUAUCAUAGGAGAAAAAUU [hsa-mir-363] on TO-3-N3 (biotin conjugate)?
A. -0.302
